Reported aptazyme ON/OFF ratio values are given for each entry in this list.
B1: Pistol ribozyme (parent)
chain: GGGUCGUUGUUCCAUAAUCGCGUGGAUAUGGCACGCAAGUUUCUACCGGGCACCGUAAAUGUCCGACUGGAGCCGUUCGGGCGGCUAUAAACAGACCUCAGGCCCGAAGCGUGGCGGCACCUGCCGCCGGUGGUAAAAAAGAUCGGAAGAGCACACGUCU

Variants of: B1
Assay: aptazyme ON/OFF ratio, guanine; higher = stronger switching; co-transcriptional cleavage with and without guanine
MEASURE: aptazyme ON/OFF ratio

{"columns": ["VARIANT_DESCRIPTION", "EXPERIMENTAL_VALUE"],
 "data": [
  ["U7C G9U U10A C12A C13G", 1.14],
  ["U7C G9U U10C U11A C12A C13A", 1.15],
  ["U8G G9C U10G U11C C12U C13A", 1.03],
  ["U7G U8A U10C U11A C12G C13U", 1.38],
  ["U7C U8C G9A U10C U11A C12A", 1.51],
  ["U8G G9C U11G C12A C13U", 1.08],
  ["G9A U10A C13U", 1.5],
  ["U7G G9C U10G U11G C12G C13G", 1.06],
  ["U7G G9A U10G U11A C12G C13G", 1.11],
  ["U7A G9A C12U C13U", 1.21],
  ["U7G U8G U10G U11G C13G", 1.13],
  ["U7C U8A U10A C12U", 1.13],
  ["U8A U11C C12G C13A", 1.31],
  ["U7C U8A G9U U10C C12U C13G", 1.12],
  ["U8A U10G U11C C12G C13G", 1.25],
  ["U7A G9A U10C C12U", 1.26],
  ["U7C G9U U10C U11A C12A", 1.25],
  ["U7A U8G C12G C13U", 1.38],
  ["U7A U8G G9U U10G U11C C13U", 1.05],
  ["U7C U8A U10G U11G C12A", 1.2],
  ["U7C U8G G9U U10G U11C C12G C13A", 1.03],
  ["U7A G9U U11C C12U C13G", 1.1],
  ["U8G G9U U10G U11G C13A", 1.04],
  ["U7G U8G G9U U10A U11A C13U", 1.28],
  ["U8A G9C U10A U11C C12U C13A", 1.07],
  ["U7G U8C G9A U10A U11G C12G C13A", 1.08],
  ["U8A G9A U10C U11A C12U C13U", 1.33],
  ["U7G U8C G9A U10G C12U C13G", 1.1],
  ["U7C G9U U11C C12A C13U", 1.14],
  ["U7C U8A G9A U10C U11A C12A", 1.12],
  ["U7G U10C U11A C12G C13G", 1.11],
  ["U7A U8A G9U U10G U11G C12A", 1.13],
  ["U7G U8C G9C U10C U11G C12A C13U", 1.1],
  ["U7C U8G G9U U10G U11G C12U C13A", 1.2],
  ["U8C G9U U11A C12A", 1.37]
]}
